Target: T1, hECD: full-length extracellular region of human MuSK (E22 to T495) with C-terminal Avi- and His6-tags (human, UniProt O15146 22-495, biotinylated in vitro using the BirA enzyme)
T1 construct: also called human ECD; not shown: Avi- and His6-tags
T1 sequence: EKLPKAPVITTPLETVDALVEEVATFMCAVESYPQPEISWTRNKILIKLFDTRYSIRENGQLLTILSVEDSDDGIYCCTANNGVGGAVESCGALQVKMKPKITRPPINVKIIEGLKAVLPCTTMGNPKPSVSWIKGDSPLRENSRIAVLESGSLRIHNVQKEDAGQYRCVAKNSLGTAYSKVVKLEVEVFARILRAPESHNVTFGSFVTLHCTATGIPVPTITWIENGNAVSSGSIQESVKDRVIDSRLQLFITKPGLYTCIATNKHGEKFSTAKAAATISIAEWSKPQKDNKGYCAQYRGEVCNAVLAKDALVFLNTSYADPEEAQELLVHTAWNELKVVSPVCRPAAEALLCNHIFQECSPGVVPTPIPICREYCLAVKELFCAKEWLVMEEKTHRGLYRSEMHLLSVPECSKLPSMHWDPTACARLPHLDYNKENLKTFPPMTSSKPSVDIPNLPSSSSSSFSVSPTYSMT
Experiment: bead-binding assay, Fab format: biotinylated antigen on streptavidin beads, flow cytometry, 1:1 fit; average ± s.d., n=3
// reported Kd for each item listed
All answers are understood in nM, so give the number only.

Look at this binder and give its reported Kd. X7 Fab (Fab, V domains shown, also called Fab Clone X7) VH: EVQLVESGGGLVQPGGSLRLSCAASGFTLYSSSIHWVRQAPGKGLEWVASISSSYSSTYYADSVKGRFTISADTSKNTAYLQMNSLRAEDTAVYYCARLAGLYHYPGYLGLDYWGQGTLVTVSS VL: DIQMTQSPSSLSASVGDRVTITCRASQSVSSAVAWYQQKPGKAPKLLIYSASSLYSGVPSRFSGSRSGTDFTLTISSLQPEDFATYYCQQSSRSSLLTFGQGTKVEIK
6

Look at this binder and give its reported Kd. X13 Fab (Fab, V domains shown, also called Fab Clone X13) VH: EVQLVESGGGLVQPGGSLRLSCAASGFTISSSSIHWVRQAPGKGLEWVASISSSSGSTSYADSVKGRFTISADTSKNTAYLQMNSLRAEDTAVYYCARSSEHWYTIGYYGIDYWGQGTLVTVSS VL: DIQMTQSPSSLSASVGDRVTITCRASQSVSSAVAWYQQKPGKAPKLLIYSASSLYSGVPSRFSGSRSGTDFTLTISSLQPEDFATYYCQQSYGSFSLITFGQGTKVEIK
2.39

More entries:
Look at this binder and give its reported Kd. X1 Fab (Fab, V domains shown, m52 is the same Fab tetramerized with streptavidin; also called Fab Clone X1 (monovalent Fab format)) VH: EVQLVESGGGLVQPGGSLRLSCAASGFTFSSSSIHWVRQAPGKGLEWVASISSSSGSTSYADSVKGRFTISADTSKNTAYLQMNSLRAEDTAVYYCARKYWSQYYWAHYYGGLDYWGQGTLVTVSS VL: DIQMTQSPSSLSASVGDRVTITCRASQSVSSAVAWYQQKPGKAPKLLIYSASSLYSGVPSRFSGSRSGTDFTLTISSLQPEDFATYYCQQSSSSLITFGQGTKVEIK
0.55

Look at this binder and give its reported Kd. X3 Fab (Fab, V domains shown, Fab format) VH: EVQLVESGGGLVQPGGSLRLSCAASGFTISSSSIHWVRQAPGKGLEWVASISSSSGYTYYADSVKGRFTISADTSKNTAYLQMNSLRAEDTAVYYCARSWYEMWMSGYFGFDYWGQGTLVTVSS VL: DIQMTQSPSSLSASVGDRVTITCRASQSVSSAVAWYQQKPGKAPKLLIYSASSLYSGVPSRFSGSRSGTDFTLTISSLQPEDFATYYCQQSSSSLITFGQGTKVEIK
0.16
